Tested on: Plasmodium berghei
Assay: Luciferase/luciferin-expressing antifolate-resistant parasites were used to infect a culture of HepG2 cells that were pre-incubated with compounds. Infected hepatocytes emit light due to the luciferase reaction. Assay results are presented as the percent inhibition of light emission compared to control. […]
Assay type: functional
Conditions: sporozoite, PBLUC_HILL_SLOPE 0.71, PBLUC_R_SQUARED 0.895, read-out: LUCIFERASE INFECTION ASSAY - IC50
parameter: pIC50
pIC50 (log units): -log10 of the concentration in mol/L.

Param readout = pIC50; param system = Plasmodium berghei; param query = CC(C)(C)c1ccc(Oc2ccc(N)cn2)cc1 [LIMANTRAFIN] ; response: value
5.92

Data origin: ChEMBL document CHEMBL4483862
